Every entry's value here was drawn from ChEMBL document CHEMBL4706586.

- Species: Rattus norvegicus
- Assay comment: Selectivity ratio of Ki for SERT in Sprague-Dawley rat midbrain membranes to Ki for DAT in Sprague-Dawley rat striatum membranes
Property name: Ratio Ki
Give your answer as a number; write no unit.

[Q] Please give the measured Ratio Ki for this molecule: `CN(CCSC(c1ccc(F)cc1)c1ccc(F)cc1)C1CCN(C(=O)c2ccccc2F)CC1`
[A] 4.47

[Q] Same read-out for `Fc1ccc(C(SCCN2CCC(NCc3ccc(Cl)cc3)CC2)c2ccc(F)cc2)cc1` ?
[A] 4.59

[Q] Same read-out for `NC(=O)C[S@+]([O-])C(c1ccc(F)cc1)c1ccc(F)cc1` ?
[A] 5.05

[Q] Same read-out for CC(C)(C)CN1CCC(NCC[S+]([O-])C(c2ccc(F)cc2)c2ccc(F)cc2)CC1 (centres undefined) ?
[A] 16.2
